Target: G-protein coupled bile acid receptor 1 (Homo sapiens)
Test: Agonist activity at N-terminal HA-tagged human TGR5 expressed in HEK293 cells assessed as […] in intracellular cAMP levels incubated for 30 mins by Lance Ultra cAMP assay relative to control
Type: functional, cell-based
Conditions: filed as agonist
Emax values for the compounds below.

[
  {
    "molecule_smiles": "CC(C)NC(=O)O[C@@H]1CC[C@]2(C)[C@H]3CC[C@@H]4[C@H]5[C@H](C(C)C)CC[C@]5(C(=O)O)CC[C@@]4(C)[C@]3(C)CC[C@H]2C1(C)C",
    "unit_of_measurement": "%",
    "Emax": 97
  },
  {
    "molecule_smiles": "CCNS(=O)(=O)O[C@@H]1CC[C@]2(C)[C@H]3CC[C@@H]4[C@H]5[C@H](C(C)C)CC[C@]5(C(=O)O)CC[C@@]4(C)[C@]3(C)CC[C@H]2C1(C)C",
    "unit_of_measurement": "%",
    "Emax": 98
  },
  {
    "molecule_smiles": "COCC(=O)O[C@@H]1CC[C@]2(C)[C@H]3CC[C@@H]4[C@H]5[C@H](C(C)C)CC[C@]5(C(=O)O)CC[C@@]4(C)[C@]3(C)CC[C@H]2C1(C)C",
    "unit_of_measurement": "%",
    "Emax": 100
  },
  {
    "molecule_smiles": "CC(=O)[C@@H]1CC[C@]2(C(=O)O)CC[C@]3(C)[C@H](CC[C@@H]4[C@@]5(C)CC[C@@H](OC(=O)NC6CC6)C(C)(C)[C@@H]5CC[C@]43C)[C@@H]12",
    "unit_of_measurement": "%",
    "Emax": 100
  },
  {
    "molecule_smiles": "CCCNC(=O)O[C@@H]1CC[C@]2(C)[C@H]3CC[C@@H]4[C@H]5[C@H](C(C)C)CC[C@]5(C(=O)O)CC[C@@]4(C)[C@]3(C)CC[C@H]2C1(C)C",
    "unit_of_measurement": "%",
    "Emax": 96
  },
  {
    "molecule_smiles": "CC(C)[C@@H]1CC[C@]2(C(=O)O)CC[C@]3(C)[C@H](CC[C@@H]4[C@@]5(C)CC[C@@H](OC(N)=O)C(C)(C)[C@@H]5CC[C@]43C)[C@@H]12",
    "unit_of_measurement": "%",
    "Emax": 100
  },
  {
    "molecule_smiles": "CCCS(=O)(=O)O[C@@H]1CC[C@]2(C)[C@H]3CC[C@@H]4[C@H]5[C@H](C(C)C)CC[C@]5(C(=O)O)CC[C@@]4(C)[C@]3(C)CC[C@H]2C1(C)C",
    "unit_of_measurement": "%",
    "Emax": 98
  },
  {
    "molecule_smiles": "CNS(=O)(=O)O[C@@H]1CC[C@]2(C)[C@H]3CC[C@@H]4[C@H]5[C@H](C(C)C)CC[C@]5(C(=O)O)CC[C@@]4(C)[C@]3(C)CC[C@H]2C1(C)C",
    "unit_of_measurement": "%",
    "Emax": 99
  }
]

---

Target: G-protein coupled bile acid receptor 1 (Homo sapiens, UniProt Q8TDU6)
Sequence (Q8TDU6 whole entry): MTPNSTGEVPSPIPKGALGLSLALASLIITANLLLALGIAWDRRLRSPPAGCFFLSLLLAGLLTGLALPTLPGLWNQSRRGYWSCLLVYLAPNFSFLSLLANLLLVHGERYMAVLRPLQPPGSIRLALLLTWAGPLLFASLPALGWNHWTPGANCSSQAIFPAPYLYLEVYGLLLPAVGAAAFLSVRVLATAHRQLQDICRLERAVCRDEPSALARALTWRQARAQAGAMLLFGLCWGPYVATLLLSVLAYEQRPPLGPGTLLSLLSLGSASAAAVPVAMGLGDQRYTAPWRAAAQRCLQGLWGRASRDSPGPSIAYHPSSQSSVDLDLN
Assay: Agonist activity at N-terminal HA-tagged human TGR5 expressed in HEK293 cells assessed as […] in intracellular cAMP levels incubated for 30 mins by Lance Ultra cAMP assay
measurement_label: log10(EC50) (log10 of the value in nM)

[
  {
    "molecule_smiles": "CNC(=O)O[C@@H]1CC[C@]2(C)[C@H]3CC[C@@H]4[C@H]5[C@H](C(C)C)CC[C@]5(C(=O)O)CC[C@@]4(C)[C@]3(C)CC[C@H]2C1(C)C",
    "log10(EC50)": 1.25
  },
  {
    "molecule_smiles": "CC(C)[C@@H]1CC[C@]2(C(=O)O)CC[C@]3(C)[C@H](CC[C@@H]4[C@@]5(C)CC[C@@H](OC(=O)CO)C(C)(C)[C@@H]5CC[C@]43C)[C@@H]12",
    "log10(EC50)": 1.43
  },
  {
    "molecule_smiles": "CCNS(=O)(=O)O[C@@H]1CC[C@]2(C)[C@H]3CC[C@@H]4[C@H]5[C@H](C(C)C)CC[C@]5(C(=O)O)CC[C@@]4(C)[C@]3(C)CC[C@H]2C1(C)C",
    "log10(EC50)": 1.84
  },
  {
    "molecule_smiles": "CC(C)[C@@H]1CC[C@]2(C(=O)O)CC[C@]3(C)[C@H](CC[C@@H]4[C@@]5(C)CC[C@@H](OC(=O)NC6CCCC6)C(C)(C)[C@@H]5CC[C@]43C)[C@@H]12",
    "log10(EC50)": 1.47
  },
  {
    "molecule_smiles": "CCCS(=O)(=O)O[C@@H]1CC[C@]2(C)[C@H]3CC[C@@H]4[C@H]5[C@H](C(C)C)CC[C@]5(C(=O)O)CC[C@@]4(C)[C@]3(C)CC[C@H]2C1(C)C",
    "log10(EC50)": 1.89
  },
  {
    "molecule_smiles": "CCN(C)C(=O)O[C@@H]1CC[C@]2(C)[C@H]3CC[C@@H]4[C@H]5[C@H](C(C)C)CC[C@]5(C(=O)O)CC[C@@]4(C)[C@]3(C)CC[C@H]2C1(C)C",
    "log10(EC50)": 2.32
  }
]
